experimentalDetails: Steady-state fluorescence anisotropy in solvents and liposomes
Type: physicochemical
conditionsUsed: PBS, 1 μM drug, 37° C.
Counter-ions that a name gives are not always drawn.
experimentalEndpoint: steady-state anisotropy (a), PBS
Write the value as a bare number.

For orientation, consider the following solved cases.
{"compound": "CCC1(O)C(=O)OCc2c1cc1n(c2=O)Cc2cc3cc(O)ccc3nc2-1 (stereo not drawn) [10-hydroxycamptothecin]", "steady-state anisotropy (a), PBS": 0.021}
{"compound": "CCC1(O)C(=O)OCc2c1cc1n(c2=O)Cc2cc3cc4c(cc3nc2-1)OCO4 (stereo not drawn)", "steady-state anisotropy (a), PBS": 0.021}
{"compound": "CC[C@@]1(O)C(=O)OCc2c1cc1n(c2=O)Cc2cc3ccccc3nc2-1", "steady-state anisotropy (a), PBS": 0.007}
{"compound": "CCC1(O)C(=O)OCc2c1cc1n(c2=O)Cc2cc3c(Cl)c4c(cc3nc2-1)OCO4 (stereo not drawn)", "steady-state anisotropy (a), PBS": 0.025}
{"compound": "CC[C@@]1(O)C(=O)OCc2c1cc1n(c2=O)Cc2cc3c(CN(C)C)c(O)ccc3nc2-1", "steady-state anisotropy (a), PBS": 0.008}

With those in mind, consider the next compound.
// recorded steady-state anisotropy (a), PBS for CCC(O)(C(=O)O)c1cc2n(c(=O)c1CO)Cc1cc3ccccc3nc1-2 (stereo not drawn) [camptothecin carboxylate, camptothecin carboxylate sodium salt] : 0.008

====

experimentalDetails: Steady-state fluorescence anisotropy in solvents and liposomes
Assay type: physicochemical
conditionsUsed: extrapolated to -25° C., glycerol
Description: Steady-state fluorescence measurements were obtained on a SLM Model 4800C. spectrofluorometer with a thermostated cuvette compartment. This instrument was interfaced with an IBM PS/2 model 55 SX computer. Excitation and emission spectra were recorded with an excitation resolution of 8 nm and an emission resolution of 4 nm. In all cases spectra were corrected for background fluorescence and scatter from unlabeled lipids or from solvents by subtraction of the spectrum of a blank. […]
Counter-ions that a name gives are not always drawn.
experimentalEndpoint: limiting fluorescence anisotropy a0
Please respond with just the number, no unit label.

Some solved entries appear below for comparison.
{"compound": "CCC1(O)C(=O)OCc2c1cc1n(c2=O)Cc2cc3c(Cl)c4c(cc3nc2-1)OCO4 (stereo not drawn)", "limiting fluorescence anisotropy a0": 0.367}
{"compound": "CCC1(O)C(=O)OCc2c1cc1n(c2=O)Cc2cc3cc4c(cc3nc2-1)OCO4 (stereo not drawn)", "limiting fluorescence anisotropy a0": 0.374}
{"compound": "CCC1(O)C(=O)OCc2c1cc1n(c2=O)Cc2cc3cc(O)ccc3nc2-1 (stereo not drawn) [10-hydroxycamptothecin]", "limiting fluorescence anisotropy a0": 0.372}
{"compound": "CC[C@@]1(O)C(=O)OCc2c1cc1n(c2=O)Cc2cc3c(CN(C)C)c(O)ccc3nc2-1", "limiting fluorescence anisotropy a0": 0.367}
{"compound": "CC[C@@]1(O)C(=O)OCc2c1cc1n(c2=O)Cc2cc3ccccc3nc2-1", "limiting fluorescence anisotropy a0": 0.383}

Here is another compound to look at.
Entry under test: CCC(O)(C(=O)O)c1cc2n(c(=O)c1CO)Cc1cc3ccccc3nc1-2 (stereo not drawn) [camptothecin carboxylate, camptothecin carboxylate sodium salt] . Its limiting fluorescence anisotropy a0 was 0.377

====

experimentalDetails: HPLC assay of lactone ring hydrolysis, free in PBS or associated with liposomes or micelles
Assay type: physicochemical
conditionsUsed: DMPC liposomes, pH 7.4, 37° C.
experimentalEndpoint: C/L drug DMPC Lip.

Here is how some compounds turned out for C/L drug DMPC Lip..
{"compound": "CC[C@@]1(O)C(=O)OCc2c1cc1n(c2=O)Cc2cc3ccccc3nc2-1", "experimentalEndpoint": "C/L drug DMPC Lip.", "resultValue": "~ 0"}
{"compound": "CCC1(O)C(=O)OCc2c1cc1n(c2=O)Cc2cc3c(N)cccc3nc2-1 (centres unmarked)", "experimentalEndpoint": "C/L drug DMPC Lip.", "resultValue": 0.45}
{"compound": "CCC1(O)C(=O)OCc2c1cc1n(c2=O)Cc2cc3cc4c(cc3nc2-1)OCO4 (centres unmarked)", "experimentalEndpoint": "C/L drug DMPC Lip.", "resultValue": "~ 0"}
{"compound": "CCC1(O)C(=O)OCc2c1cc1n(c2=O)Cc2cc3c(Cl)c4c(cc3nc2-1)OCO4 (centres unmarked)", "experimentalEndpoint": "C/L drug DMPC Lip.", "resultValue": "~ 0"}

Let us move to another entry and its C/L drug DMPC Lip..
Short answer for `CC[C@@]1(O)C(=O)OCc2c1cc1n(c2=O)Cc2cc3c(CN(C)C)c(O)ccc3nc2-1` : C/L drug DMPC Lip. was 3.4
